For MELK (Homo sapiens), measured pIC50 is reported for the entries below.
Give bare numbers, as −log10 of the molar value.

Some solved cases for reference:
> print(dat)
                    structure.smiles.string  measured
1  O=C(Nc1ccc2c(c1)CCNCC2)c1ccc(-c2cn[nH]c2)cc1OCCN1CCCC1      7.12
2  O=C(Nc1ccc2c(c1)CCNCC2)c1ccc(-c2cn[nH]c2)cc1OC1CCCCC1      8.52
3  O=C(Nc1ccc2c(c1)CCNCC2)c1ccc(-c2cn[nH]c2)cc1OCc1cccnc1      7.79
4  O=C(Nc1ccc2c(c1)CCNCC2)c1ccc(-c2cn[nH]c2)cc1OCc1ccccc1      8.66

Hi there! I need pIC50 for each item below, if you can.
1. O=C(Nc1ccc2c(c1)CCNCC2)c1ccc(-c2cn[nH]c2)cc1OCCN1CCCC1=O
2. CC(=O)N1CCc2ccc(NC(=O)c3ccc(-c4cn[nH]c4)cc3OCc3ccccc3)cc2CC1
3. O=C(Nc1ccccc1)c1ccc(-c2cn[nH]c2)cc1OCc1ccccc1
4. O=C(Nc1ccc2c(c1)CCNCC2)c1ccc(-c2cn[nH]c2)cc1OC1Cc2ccccc2C1
5. O=C(Nc1ccc2c(c1)CCNCC2)c1ccc(-c2cc(Cl)c(O)c(Cl)c2)cc1OCc1ccccc1

[7.09, 7.22, 5.94, 8.98, 8.72]

* * *

target: MELK (Homo sapiens)
Sequence (Q14680 whole entry): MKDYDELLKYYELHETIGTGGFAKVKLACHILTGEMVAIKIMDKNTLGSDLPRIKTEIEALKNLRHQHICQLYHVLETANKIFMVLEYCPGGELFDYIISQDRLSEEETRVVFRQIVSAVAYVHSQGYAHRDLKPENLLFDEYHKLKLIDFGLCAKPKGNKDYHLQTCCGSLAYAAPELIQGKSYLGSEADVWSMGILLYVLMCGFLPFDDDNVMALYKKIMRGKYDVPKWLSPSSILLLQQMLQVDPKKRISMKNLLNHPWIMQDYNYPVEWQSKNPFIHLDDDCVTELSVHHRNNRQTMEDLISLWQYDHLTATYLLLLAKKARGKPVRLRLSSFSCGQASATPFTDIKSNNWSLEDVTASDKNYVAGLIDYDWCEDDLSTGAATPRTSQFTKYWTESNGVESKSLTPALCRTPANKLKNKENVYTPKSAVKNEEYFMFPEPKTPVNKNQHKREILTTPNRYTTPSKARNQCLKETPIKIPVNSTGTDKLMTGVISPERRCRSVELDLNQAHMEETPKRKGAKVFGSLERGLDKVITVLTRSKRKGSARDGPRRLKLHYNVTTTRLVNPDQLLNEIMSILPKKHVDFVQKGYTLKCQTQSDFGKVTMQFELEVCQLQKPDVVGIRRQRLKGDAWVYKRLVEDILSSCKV
pIC50: −log10 of the molar value.
Please use True whenever pIC50 is not below 7, and False whenever it is.

> print(dat)
                                   compound  group
1  O=C(Nc1ccc2c(c1)CCNCC2)c1ccc(-c2cn[nH]c2)cc1OC(CN1CCCC1)c1ccccc1 (centres unmarked)  False

Read the next record carefully.
Quick check: does O=C(Nc1ccc2c(c1)CCNCC2)c1ccc(-c2cn[nH]c2)cc1OCC1CCCCC1 have pIC50 greater than or equal to 7?
True

* * *

For MELK (Homo sapiens, UniProt Q14680), measured pIC50 is reported for the entries below.
Answers are plain numbers, as −log10 of the molar value.

Hi there! I need pIC50 for each item below, if you can.
1. O=C(Nc1cccc2c1CCNCC2)c1ccc(-c2cn[nH]c2)cc1OCc1ccccc1
2. O=C(Nc1ccc2c(c1)CCNCC2)c1ccc(-c2cn[nH]c2)cc1OCCN1CCOCC1
3. O=C(Nc1ccc2c(c1)CCNCC2)c1ccc(-c2cn[nH]c2)cc1O

1. 6.87
2. 7.07
3. 7.16

Entry source: patent US10875844B2
